test: Systemic clearance and pharmacokinetics after i.v. dose in C57BL/6 mice aging 2 months; assay type: in vivo, mouse; settings: male, C57BL/6, mouse, plasma, iv; i.v. 0.2 mg/kg
Experimental Readout: AUC(0-inf) (ng·h/mL)
Quick note: give the figure in ng·h/mL, leave out the unit.

Data request: Query (compound): `COCCOCCn1c2ccccc2c2cc(/C=C/c3cc[n+](C)c4ccccc34)ccc21.[I-]` ; field requested: AUC(0-inf)
Data returned: 240

Data request: Query (compound): `COCCOCCn1c2ccccc2c2cc(/C=C/c3cc[n+](CCO)c4ccccc34)ccc21` ; field requested: AUC(0-inf)
Data returned: 220

Data provenance: paper PMC5703966
